Assign pKa at 18 h to each entry below.
# protocolDescription: equilibrium solubility-pH, direct-UV microtitre plate (μSOL Evolution) with and without excipients
# appliedConditions: aqueous universal buffer (pION), saturated drug suspension, pKa^APP ± SD, apparent ionization constant; excipient 1% PG
Enter a number only.

Given item OCCN(CCO)c1nc(N2CCCCC2)c2nc(N(CCO)CCO)nc(N3CCCCC3)c2n1 , the value recorded as its pKa at 18 h is 5.8

Given item Cc1cccc(Nc2ccccc2C(=O)O)c1C , the value recorded as its pKa at 18 h is 4

Given item CCCCN(CCCC)CCCOC(=O)c1ccc(N)cc1 , the value recorded as its pKa at 18 h is 8.2

Hello, the source for this data is patent US8175815B2, in case you need it.
